Test: solubility in sterile distilled water
Format: physicochemical
Details: thermodynamic from solid, read-out: maximum solubility
quantity: solubility

Lookup: Which solubility value is on record for O=C(O)c1cc(=O)c2c(OCC(O)COc3cccc4oc(C(=O)O)cc(=O)c34)cccc2o1 [sodium cromoglycate, Sodium cromoglycate] ?
Found: ~120 mg/mL
